target: hCMV UL130 and UL131A co-expressed in HEK293T cells (human cytomegalovirus, UniProt P16772 1-214); test: cell-based or functional assay
Sequence (P16772 whole entry): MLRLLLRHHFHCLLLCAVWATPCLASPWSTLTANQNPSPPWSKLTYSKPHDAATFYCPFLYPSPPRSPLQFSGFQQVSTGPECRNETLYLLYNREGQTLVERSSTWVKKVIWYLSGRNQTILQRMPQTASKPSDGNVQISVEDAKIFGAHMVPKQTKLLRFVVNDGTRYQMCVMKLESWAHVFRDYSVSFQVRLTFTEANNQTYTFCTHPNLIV
reported property: 50% Neutralization ARPE (hCMV VR1814)

4N10 (antibody, V domains shown, human IgG mAb; also called 4N10-biotin) VH: QVQLVQSGAEVKKPGSSVRVSCKASGGTFSSYVIIWVRQAPGQGLEWMGGVIPIFDTVNYAQKFQGRVTITADESTSTAYMELSSLKSEDTAVYYCARGILAYCGGDCYNTPYGMDVWGQGTTVTVSS VL: DIQMTQSPSILSASVGDRVTITCRASQSISSWLAWYQQKPGKAPKLLIYKASSLEIGVPSRISGSGSGTEFTLTISSLQPDDFATYYCQQYNSSWTFGQGTKVEIK = < 0.001 µg/mL
10P3 (antibody, V domains shown, human IgG mAb) VH: EVQLVESGGGLVRPGGSLRLSCAASGFTFHNYRMNWVRQAPGKGLEWVANIKQDGSEKSYVDSVRGRFTTSRDNSKNSLYLQINSLRAEDTAVYYCARGEGYTYGVVYSYSAMDVWGQGTTVIVSS VL: SYELTQPPSVSVSPGQTARITCSGNVLPNQYASWYQQKPGQAPVLVIYKDTERPSGIPGRFSGSSSGTTVTLTISGVQAEDEADYYCQSADSSGADYVFGTGTKVTVL = < 0.001 µg/mL
8L13 (antibody, V domains shown, human IgG mAb) VH: QVQLLESGGGVVQPGRSLRLSCAASGFTFSNYGMHWVRQAPGKGLEWVAVIWNDGSKKYYAESVKGRFTISRDNSKNTVYLQMNSLRAEDTAVYYCARDEGVQMVFAMPDYGMDVWGQGTTVTVSS VL: SYELTQPPSVSVSPGQTASITCSGDKLGDKFACWYQQRPGQSPILVIYQDSKRPSGIPERFSGSNSGNTATLTIRGTQAMDEADYYCQAWDSSTAHYVFGTGTKVTVL = < 0.01 µg/mL
10F7 (antibody, V domains shown, human IgG mAb; also called 10F7-biotin) VH: EVQLVESGGGLVQPGRSLRLSCTASGFTFGDYAMSWFRQAPGKGLEWVGFIRSKAYGGTTEYAASVKGRFTISRDDSKSIAYLQMNSLKTEDTAVYYCTRASSLLWLLNPQPNFDYWGQGTLVTVSS VL: SYVLTQPPSVSVAPGQTARITCGGNNIGSNNVHWYQQKPGQAPVLVVYDDSDRPSGIPERFSGSNSGNTATLTISRVEAGDEADYYCQVWDSSSDHPVFGGGTKLTVL = < 0.01 µg/mL

Look up 50% Neutralization ARPE (hCMV VR1814) of 4I22 (antibody, V domains shown, human IgG mAb; also called 4I22-biotin) VH: QVQLVESGGGVVQPGRSLRLSCVASGFTFSSYAMHWVRQAPGKGLEWVAVISYDGDNKFYADSVKGRFRISRDTSKNTLYLEMNSLRAADTAIYYCAREELVGLMPPYYNYGLDVWGQGTTVTVSS VL: QSVLTQPPSVSAAPGQKVTISCSGSNSNIGNNYVSWYQQLPGRAPKLLIYDNDHRPSGIPDRFSGSKSGTSATLVITGLQTGDEADYYCETWDTSLSAAVVFGGGTKLTVL and report it.
< 0.01 µg/mL
